Catalogue of binders with associated fold difference in affinity vs original
Target: T1, Ep-CAM (UniProt P16422 24-265, limits assumed)
T1 sequence (looked up): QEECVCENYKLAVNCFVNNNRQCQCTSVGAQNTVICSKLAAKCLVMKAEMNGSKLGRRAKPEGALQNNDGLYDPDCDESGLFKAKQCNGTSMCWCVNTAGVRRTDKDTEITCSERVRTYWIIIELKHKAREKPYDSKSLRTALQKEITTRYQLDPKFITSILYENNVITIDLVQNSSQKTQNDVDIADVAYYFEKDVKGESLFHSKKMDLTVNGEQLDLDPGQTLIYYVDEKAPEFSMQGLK
Assay: Biacore, Fab periplasmic extract on immobilised Epcam
OBSERVABLE: fold difference in affinity vs original (fold)

BINDER	ASSAY RESULT
ING-1 Fab, heavy chain Y105A (Fab, V domains shown, Fab in periplasmic extract) VH: QIQLVQSGPELKKPGETVKISCKASGYTFTKYGMNWVKQAPGKGLKWMGWINTYTEEPTYGDDFKGRFAFSLETSASTANLQINNLKSEDTATYFCARFGSAVDAWGQGTSVTVSS VL: DIVMTQAAFSNPVTLGTSGSISCRSSKSLLHSNGITYLYWYLQKPGQSPQLLIYQMSNLASGVPDRFSSSGSGTDFTLRISRVEAEDVGVYYCAQNLELPRTFGGGTKLEMKR	0.08
ING-1 Fab, heavy chain Y32G (Fab, V domains shown, Fab in periplasmic extract) VH: QIQLVQSGPELKKPGETVKISCKASGYTFTKGGMNWVKQAPGKGLKWMGWINTYTEEPTYGDDFKGRFAFSLETSASTANLQINNLKSEDTATYFCARFGSAVDYWGQGTSVTVSS VL: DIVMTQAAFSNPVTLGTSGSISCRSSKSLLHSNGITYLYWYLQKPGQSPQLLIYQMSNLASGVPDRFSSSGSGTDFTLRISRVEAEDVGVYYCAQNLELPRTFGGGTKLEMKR	0.02
ING-1 Fab, heavy chain Y32P (Fab, V domains shown, Fab in periplasmic extract) VH: QIQLVQSGPELKKPGETVKISCKASGYTFTKPGMNWVKQAPGKGLKWMGWINTYTEEPTYGDDFKGRFAFSLETSASTANLQINNLKSEDTATYFCARFGSAVDYWGQGTSVTVSS VL: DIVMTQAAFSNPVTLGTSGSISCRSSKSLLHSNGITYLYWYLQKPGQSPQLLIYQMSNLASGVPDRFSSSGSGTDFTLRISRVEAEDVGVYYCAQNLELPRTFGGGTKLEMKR	0.01

Cited source for all entries: patent US20110118131A1
